Quick list: cell viability per entry.
- Tested on: NOMO1
- test-name: cell viability relative to DMSO control; higher = less cytotoxic
- measurement-setup: HPLM + 10% dialyzed FBS; 48 h; 15.4 µM
endpoint-name: cell viability (%)

compound: COc1cc(C[C@@H](CO)[C@H](CO)Cc2ccc(O)c(OC)c2)ccc1O
experimental-target: NOMO1
observed: 101

compound: NC[C@H](O)c1ccc(O)c(O)c1
experimental-target: NOMO1
observed: 86.9

compound: CC1=CC/2=C(C=C1C)N(C[C@@H](O)[C@@H](O)[C@@H](O)CO)C/3=N/C(=O)NC(=O)C3=N2
experimental-target: NOMO1
observed: 127

compound: CCCCN1CCC(CNC(=O)c2c3n(c4ccccc24)CCCO3)CC1
experimental-target: NOMO1
observed: 110

compound: CCc1nc(N)nc(N)c1-c1ccc(Cl)cc1
experimental-target: NOMO1
observed: 44.6

compound: CCC(=O)NC[C@H](Cc1ccc(OCCc2nc(-c3ccccc3)oc2C)cc1)N/C(C)=C\C(=O)c1ccc(C(F)(F)F)cc1
experimental-target: NOMO1
observed: 54.3

compound: CCCCCN(C)CCC(O)(P(=O)([O-])O)P(=O)(O)O
experimental-target: NOMO1
observed: 80

compound: CN(C)c1ccc(-c2nc3c(N4CCN(CC(=O)Nc5nccs5)CC4)c(Cl)cnc3[nH]2)cc1
experimental-target: NOMO1
observed: 89.9

compound: C[C@]12CC[C@H]3[C@@H](CC[C@@]45O[C@@H]4C(O)=C(C#N)C[C@]35C)[C@@H]1CC[C@@H]2O
experimental-target: NOMO1
observed: 109

compound: CNC(=O)c1nn(C)c2c1C(C)(C)Cc1cnc(Nc3ccc(N4CCN(C)CC4)cc3)nc1-2
experimental-target: NOMO1
observed: 47.8

compound: COCCCC/C(=N\OCCN)c1ccc(C(F)(F)F)cc1
experimental-target: NOMO1
observed: 48.9

compound: O=c1oc2cc(O)ccc2s1
experimental-target: NOMO1
observed: 110

compound: CC(O)(C[S+](=O)([O-])c1ccc(F)cc1)C(=O)Nc1ccc(C#N)c(C(F)(F)F)c1 (configuration not stated)
experimental-target: NOMO1
observed: 87.5

compound: O=C(Nc1ccccc1)Nc1ccc(-c2ccc(C(=O)[C@@H]3CCC[C@H]3C(=O)O)cc2)cc1
experimental-target: NOMO1
observed: 66.7

compound: CC(C)[C@H](O)C(=O)N[C@@H](C)C(=O)N[C@@H]1C(=O)N(C)CCc2ccccc21
experimental-target: NOMO1
observed: 92.6

compound: COc1cc(N2CCC(N3CCN(C)CC3)CC2)ccc1Nc1ncc(Cl)c(Nc2ccccc2[S+](=O)([O-])C(C)C)n1
experimental-target: NOMO1
observed: 38.7

compound: Cc1nc(-c2ccc(-c3ccc(C(=O)N4CCc5cc6c(cc54)C4(CCN(C)CC4)CO6)cc3)c(C)c2)no1
experimental-target: NOMO1
observed: 127
